# System: PPARg:RXRa 270nM:90nM, anti-RXR (NR concentration 270 nM, RXRa partner concentration 90 nM)
# ASSAY INFO: PBM binding z-score (relative to random genomic background probes); higher = stronger binding; sequences stand for … in GC…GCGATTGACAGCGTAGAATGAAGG
Use 4 as the dividing line for PBM binding z-score, with the line itself on the YES side and lower values as NO.

- INPUT SEQUENCE: "ATATTTAGGTTAAGGGTCATTCAGGTTGGTTCGC"
  CLASSIFICATION: "YES"
- INPUT SEQUENCE: "CGAGCTAGGTCAGAACAGGACAGTGAAGGATGAT"
  CLASSIFICATION: "NO"
- INPUT SEQUENCE: "CAAACTCGGTCAAGGTCAAAGTCGGTTTGTGCCA"
  CLASSIFICATION: "YES"
- INPUT SEQUENCE: "AGTAAAAGTTCATCTAGGTAACGTAAGATATGCT"
  CLASSIFICATION: "NO"
- INPUT SEQUENCE: "ACAGACAGGTGATGGAGGTAACTCAGGCTATCAT"
  CLASSIFICATION: "NO"
- INPUT SEQUENCE: "TCATATAGGGAAAAGGTGAAAGTCGGTGTGGTAA"
  CLASSIFICATION: "YES"

----------
Consider the following sequences and their measured PBM binding z-score readings.
# Test system: PPARg homodimer (NR concentration 180 nM)
# ASSAY INFO: PBM binding z-score (relative to random genomic background probes); higher = stronger binding; sequences stand for … in GC…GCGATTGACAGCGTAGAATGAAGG

- INPUT SEQUENCE: "CAAACTAGTTCACGAAAGGTCAAAGTCGAATGAC"
  TARGET: "PPARg homodimer (NR concentration 180 nM)"
  PBM binding z-score: 5.52
- INPUT SEQUENCE: "CGTCCAAGGTCAATGCTAGGTCAGTGATAGCATT"
  TARGET: "PPARg homodimer (NR concentration 180 nM)"
  PBM binding z-score: 6.16
- INPUT SEQUENCE: "ACAGACAGGCGAGTGAAGGTAACTCAGCTGGACG"
  TARGET: "PPARg homodimer (NR concentration 180 nM)"
  PBM binding z-score: 0.0641
- INPUT SEQUENCE: "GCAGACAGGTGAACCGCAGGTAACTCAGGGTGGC"
  TARGET: "PPARg homodimer (NR concentration 180 nM)"
  PBM binding z-score: -0.518
- INPUT SEQUENCE: "TCTTGTAGCTCAACAGGAGGTTAAGAAAGATCGA"
  TARGET: "PPARg homodimer (NR concentration 180 nM)"
  PBM binding z-score: -0.822
- INPUT SEQUENCE: "CCTAGTTGGTCAGGAGGTCACCCACCGGATATGA"
  TARGET: "PPARg homodimer (NR concentration 180 nM)"
  PBM binding z-score: 3.43
- INPUT SEQUENCE: "GCTGCTAGGTCAGGTTGGGCAGCTAACGGGTACG"
  TARGET: "PPARg homodimer (NR concentration 180 nM)"
  PBM binding z-score: 0.77
- INPUT SEQUENCE: "CGAACTAGGTCATTGACAGGGCAGTGAATAGTAA"
  TARGET: "PPARg homodimer (NR concentration 180 nM)"
  PBM binding z-score: 2.24
- INPUT SEQUENCE: "ATCTCTAGGTAAAAGTTCATTGAATCCCGAGGAT"
  TARGET: "PPARg homodimer (NR concentration 180 nM)"
  PBM binding z-score: 1.37
- INPUT SEQUENCE: "ATACCAAGGTGATCGTGAGGTCGCTGATACTAAC"
  TARGET: "PPARg homodimer (NR concentration 180 nM)"
  PBM binding z-score: 0.832
- INPUT SEQUENCE: "ACAGACAGGTGATGAAGGTAACTCACGCTATCAT"
  TARGET: "PPARg homodimer (NR concentration 180 nM)"
  PBM binding z-score: 0.0571
- INPUT SEQUENCE: "TCGAGTACGTTACCAATGGGGCATTCAGCTTTCT"
  TARGET: "PPARg homodimer (NR concentration 180 nM)"
  PBM binding z-score: -0.459

----------
# Tested on: PPARg:RXRa DBDmut IVT, anti-RXR (DBD mutation: RXRa K156A/R161A, NR concentration 270 nM, RXRa partner concentration 90 nM)
# ASSAY INFO: PBM binding z-score (relative to random genomic background probes); higher = stronger binding; sequences stand for … in GC…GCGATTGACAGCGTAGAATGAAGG
Binary call on PBM binding z-score: MET from 4 upward, NOT MET beneath that.

- INPUT SEQUENCE: "GATACAGGGTCAGCGAGAGGCCAGAGTATGGAAA"
  CLASSIFICATION: "NOT MET"
- INPUT SEQUENCE: "CGAACTAGGTCATCCAGGACAGTGAGTACATTGA"
  CLASSIFICATION: "MET"
- INPUT SEQUENCE: "GCTAGTTGGTCAATAAAAGGTCACACACCGGTCG"
  CLASSIFICATION: "NOT MET"
- INPUT SEQUENCE: "CAAACTAGGTCAAAGGTTAAAGTCGAGCCAACCA"
  CLASSIFICATION: "MET"
- INPUT SEQUENCE: "CAAGCTAGGTCAAGGTCAAAGTCGGTTTGTGCCA"
  CLASSIFICATION: "MET"
- INPUT SEQUENCE: "TTTTGTAGATCAAAGGTTAAGAAAGCCGAAGCCT"
  CLASSIFICATION: "NOT MET"
- INPUT SEQUENCE: "TCTAGCCGGCCAGAGGGTCACTCAAGAGGTACGG"
  CLASSIFICATION: "NOT MET"
- INPUT SEQUENCE: "TGAATGAGGTTATTAGATCAGGGAACGTTGCAAA"
  CLASSIFICATION: "NOT MET"
- INPUT SEQUENCE: "GTACCAAGGTGAATAGGTCGGTGATGAGTAGGCG"
  CLASSIFICATION: "NOT MET"
- INPUT SEQUENCE: "ATCGAAAGGTCGACGAGGTGATTATACACCGTTT"
  CLASSIFICATION: "NOT MET"
- INPUT SEQUENCE: "ATATGTAGGTTAGCTGGGGTTATTCAGACTAGGC"
  CLASSIFICATION: "MET"

----------
# Test system: PPARg DBDmut IVT, anti-PPARg (DBD mutation: PPARg1 K132A/R137A, NR concentration 270 nM)
# ASSAY INFO: PBM binding z-score (relative to random genomic background probes); higher = stronger binding; sequences stand for … in GC…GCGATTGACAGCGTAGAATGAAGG
Lab note: compare PBM binding z-score against 0.1. Equal or greater, write Condition met. Smaller, write Condition not met.

- INPUT SEQUENCE: "ACTAGCAGGCCAAGTTTGGGTCACTCGAACAAAG"
  CLASSIFICATION: "Condition not met"
- INPUT SEQUENCE: "CTCGAAAGGTTGTGCTCAGGTGAGTATACCAAAC"
  CLASSIFICATION: "Condition not met"
- INPUT SEQUENCE: "CCGATTAGTTGACCATAAGGGCAACCGAAGCTCG"
  CLASSIFICATION: "Condition not met"
- INPUT SEQUENCE: "TCTTGTAGATCAAGCAGGTTGAGAAAGCCTGAGT"
  CLASSIFICATION: "Condition not met"
- INPUT SEQUENCE: "TCATATATGTAAAGGTGAAAGTCGAACGATATGA"
  CLASSIFICATION: "Condition met"
- INPUT SEQUENCE: "TCTGCTAGATCAACGATGGTCAGCTAATCTGCTA"
  CLASSIFICATION: "Condition not met"
- INPUT SEQUENCE: "CGTCCAAGGTCATAGGAGATCAGTGAAGACAGAT"
  CLASSIFICATION: "Condition met"
- INPUT SEQUENCE: "CGAACTAGGTCTTTGACAGGACAGTGAATAGTAA"
  CLASSIFICATION: "Condition met"
- INPUT SEQUENCE: "AGAATGAGGTTAGGATCAGGGAAACAGAATACAT"
  CLASSIFICATION: "Condition met"
- INPUT SEQUENCE: "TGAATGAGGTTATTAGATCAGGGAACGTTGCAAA"
  CLASSIFICATION: "Condition met"
- INPUT SEQUENCE: "AGAATGAGGTTATACGTAGATGAGGGAAGAAAGT"
  CLASSIFICATION: "Condition met"
- INPUT SEQUENCE: "AGAATGACGTTAAGATCAGGGAAACAGAATACAT"
  CLASSIFICATION: "Condition met"
- INPUT SEQUENCE: "TTGAGTAGGTTACCAATGGGGCATTCAGCTTTCT"
  CLASSIFICATION: "Condition met"
- INPUT SEQUENCE: "CCTTACGGGTCACTGACAGGTAATAGCATTTGGA"
  CLASSIFICATION: "Condition met"
- INPUT SEQUENCE: "GCTAGTTGGTCATTAAAAGGTCACACACCGGTCG"
  CLASSIFICATION: "Condition met"
- INPUT SEQUENCE: "ACTAGCAGGCCAAGGGTAACTCAAGATTAGTCCG"
  CLASSIFICATION: "Condition not met"
- INPUT SEQUENCE: "CCAGACAGGTGAAACGTAACTCAGTCTGGTACGC"
  CLASSIFICATION: "Condition not met"
- INPUT SEQUENCE: "CGTCCAAGGTCATAGGTCAGTGAAGAGATGACGG"
  CLASSIFICATION: "Condition not met"
- INPUT SEQUENCE: "ACAGACAGGTGATGAATGTAACTCAGGCTATCAT"
  CLASSIFICATION: "Condition met"
- INPUT SEQUENCE: "ATCTTTAGGTAAGACTCAGTTCAGTGAAGAACGC"
  CLASSIFICATION: "Condition met"
- INPUT SEQUENCE: "TCATATAGGTAGAAGGTGAAAGTCGGTGTGGTAA"
  CLASSIFICATION: "Condition met"
- INPUT SEQUENCE: "ACTAGTTGGTCAGCTAAGGTCACACACAATTCGG"
  CLASSIFICATION: "Condition met"
- INPUT SEQUENCE: "TAGACTAGGTCATGGGCCAGTATACCACGCGAAC"
  CLASSIFICATION: "Condition met"
- INPUT SEQUENCE: "TATACAGGGTCAAAGGCGAGAGTACGAATGTCGA"
  CLASSIFICATION: "Condition met"
- INPUT SEQUENCE: "TCTTGTAGATCAAAGGTGAAGAAAGCCGAAGCCT"
  CLASSIFICATION: "Condition met"
- INPUT SEQUENCE: "CGTACTAGGTCATTGACAGGACAGTGAATAGTAA"
  CLASSIFICATION: "Condition met"

Values compiled from the supplement of paper PMC6555819.
